meta.source: patent US12428395B2

// reported inhibition at 0.1 µM per item
biological target: UniProt O14757; assay: CHK-1 Kinase Assay (Z-LYTE based TR-FRET); assay type: biochemical; conditions: 0.1 μM compound; read-out: % Inhibition of CHK-1 enzyme activity @ 0.1 μM
Sequence (O14757 whole entry): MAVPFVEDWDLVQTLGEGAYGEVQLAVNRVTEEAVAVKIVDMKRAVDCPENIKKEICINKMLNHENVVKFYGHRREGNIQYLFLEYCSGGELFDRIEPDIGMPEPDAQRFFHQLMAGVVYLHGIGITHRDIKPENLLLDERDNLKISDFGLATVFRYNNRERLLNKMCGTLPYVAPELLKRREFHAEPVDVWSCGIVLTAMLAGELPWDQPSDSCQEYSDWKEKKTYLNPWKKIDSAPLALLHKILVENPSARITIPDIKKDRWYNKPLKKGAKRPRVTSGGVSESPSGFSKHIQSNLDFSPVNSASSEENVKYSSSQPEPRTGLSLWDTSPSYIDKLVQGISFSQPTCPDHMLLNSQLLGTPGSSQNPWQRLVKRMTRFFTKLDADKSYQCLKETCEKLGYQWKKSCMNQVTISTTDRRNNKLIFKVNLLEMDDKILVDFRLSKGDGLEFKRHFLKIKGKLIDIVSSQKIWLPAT

{"compound": "CN1CCC(CNc2cnnc(Nc3cnc(C#N)cn3)c2)CC1", "inhibition at 0.1 µM / %": 8}
{"compound": "N#Cc1cnc(Nc2cc(NCC3CCNCC3)c(C3CC3)nn2)cn1", "inhibition at 0.1 µM / %": 6}
{"compound": "N#Cc1cnc(Nc2cc(NCC3CNCCO3)c(C3CC3)nn2)cn1 (stereo not shown)", "inhibition at 0.1 µM / %": 3}
{"compound": "Cn1ccc(-c2nnc(Nc3cnc(C#N)cn3)cc2OCC2CNCCO2)n1 (stereo not shown)", "inhibition at 0.1 µM / %": 9}
{"compound": "CC(C)Oc1nnc(Nc2cnc(C#N)cn2)cc1NCC1CCNCC1", "inhibition at 0.1 µM / %": 0}
{"compound": "CNC(=O)c1nnc(Nc2cnc(C#N)cn2)cc1NCC1CCOCC1", "inhibition at 0.1 µM / %": 28}
{"compound": "CN(C)C(=O)c1nnc(Nc2cnc(C#N)cn2)cc1NCC1CCNCC1", "inhibition at 0.1 µM / %": 3}
{"compound": "N#Cc1cnc(Nc2cc(NCC3CCOCC3)c(C(N)=O)nn2)cn1", "inhibition at 0.1 µM / %": 19}
{"compound": "N#Cc1cnc(Nc2cc(NCC3CCNCC3)c(-c3ccc(F)cc3)nn2)cn1", "inhibition at 0.1 µM / %": 3}
{"compound": "CNC(=O)c1nnc(Nc2cnc(C#N)cn2)cc1NC[C@H]1CNCCO1 (stereo in doubt)", "inhibition at 0.1 µM / %": 86}

###

biological target: UniProtKB O14757; assay: CHK-1 Kinase Assay (Z-LYTE based TR-FRET); format: biochemical; details: 5 μM compound; read-out: % Inhibition of CHK-1 enzyme activity @ 5 μM
inhibition at 5 µM vs 60%: at or above is met, below is not met.

{"compound": "N#Cc1cnc(Nc2cc(NCC3CCOCC3)c(C(N)=O)nn2)cn1 [1.29]", "measured-target": "UniProtKB O14757", "answer-label": "met"}
{"compound": "CNC(=O)c1nnc(Nc2cnc(C#N)cn2)cc1NC[C@@H]1CNCCO1 (stereo in doubt) [1.34]", "measured-target": "UniProtKB O14757", "answer-label": "met"}
{"compound": "CNC(=O)c1nnc(Nc2cnc(C#N)cn2)cc1NCC1CCN(C)CC1 [1.19]", "measured-target": "UniProtKB O14757", "answer-label": "met"}
{"compound": "N#Cc1cnc(Nc2cc(NCC3CCNCC3)c(-c3cccc4[nH]ccc34)nn2)cn1 [1.24]", "measured-target": "UniProtKB O14757", "answer-label": "not met"}
{"compound": "N#Cc1cnc(Nc2cc(NCC3CNCCO3)c(C(N)=O)nn2)cn1 (stereo not shown) [1.2]", "measured-target": "UniProtKB O14757", "answer-label": "met"}
{"compound": "N#Cc1cnc(Nc2cc(NCC3CCNCC3)c(-c3ccc(CO)cc3)nn2)cn1 [1.27]", "measured-target": "UniProtKB O14757", "answer-label": "not met"}
{"compound": "Cn1ccc(-c2nnc(Nc3cnc(C#N)cn3)cc2OCC2CNCCO2)n1 (stereo not shown) [1.13]", "measured-target": "UniProtKB O14757", "answer-label": "not met"}
{"compound": "N#Cc1cnc(Nc2cc(NCC3CCNCC3)c(-c3cccc(N4CCCCC4)c3)nn2)cn1 [1.25]", "measured-target": "UniProtKB O14757", "answer-label": "not met"}
{"compound": "CNC(=O)c1nnc(Nc2cnc(C#N)cn2)cc1NC[C@H]1CNCCO1 (stereo in doubt) [1.35]", "measured-target": "UniProtKB O14757", "answer-label": "met"}
{"compound": "CNC(=O)c1nnc(Nc2cnc(C#N)cn2)cc1NCC1CNCCO1 (stereo not shown) [1.11]", "measured-target": "UniProtKB O14757", "answer-label": "met"}
{"compound": "N#Cc1cnc(Nc2cc(NCC3CNCCO3)c(C3CC3)nn2)cn1 (stereo not shown) [1.17]", "measured-target": "UniProtKB O14757", "answer-label": "not met"}
{"compound": "CN(C)C(=O)c1nnc(Nc2cnc(C#N)cn2)cc1NCC1CCNCC1 [1.32]", "measured-target": "UniProtKB O14757", "answer-label": "not met"}
{"compound": "CN1CCC(CNc2cnnc(Nc3cnc(C#N)cn3)c2)CC1 [1.10]", "measured-target": "UniProtKB O14757", "answer-label": "not met"}
{"compound": "N#Cc1cnc(Nc2cc(NCC3CCNCC3)c(OCC(F)(F)F)nn2)cn1 [1.33]", "measured-target": "UniProtKB O14757", "answer-label": "met"}
{"compound": "CN1CCC(Nc2cc(Nc3cnc(C#N)cn3)nnc2C(N)=O)CC1 [1.20]", "measured-target": "UniProtKB O14757", "answer-label": "met"}
{"compound": "COc1cccc(-c2nnc(Nc3cnc(C#N)cn3)cc2NCC2CCNCC2)c1 [1.26]", "measured-target": "UniProtKB O14757", "answer-label": "not met"}
{"compound": "N#Cc1cnc(Nc2cc(NCC3CCNCC3)c(-c3ccc(Oc4ccccc4)cc3)nn2)cn1 [1.22]", "measured-target": "UniProtKB O14757", "answer-label": "met"}
{"compound": "N#Cc1cnc(Nc2cc(NCC3CNCCO3)c(C(=O)NC3CC3)nn2)cn1 (stereo not shown) [1.12]", "measured-target": "UniProtKB O14757", "answer-label": "met"}
